Target: T1, human LILRB4 expressed on CHO-K1 cells (CHO-K1-huLILRB4) (human, UniProt Q8NHJ6 22-280)
T1 construct: also called engineered cells expressing human LILRB4
Experiment: flow cytometry on CHO-K1-huLILRB4 cells

binder | binding result
anti-LILRB4 chimeric antibody 1H12 (antibody, human IgG1, V domains shown, also called Camelid-derived anti-LILRB4 VHH 1H12-Fc) VH: EVQVVESGGGLVQAGGSLRLSCAASETIFSSNVMGWYRQAHGKQRELVAATGINGVTKYADSVKGRFTISRDNAKNTVYLQMNSLNVEDTAVYYCAAGVWRNFVMRSPDYWGQGTQVTVSS | binds
h193 (a fully human monoclonal antibody against LILRB4) (antibody, human IgG1, kappa, V domains shown, Control antibody; also called antibody h193; control antibody h193) VH: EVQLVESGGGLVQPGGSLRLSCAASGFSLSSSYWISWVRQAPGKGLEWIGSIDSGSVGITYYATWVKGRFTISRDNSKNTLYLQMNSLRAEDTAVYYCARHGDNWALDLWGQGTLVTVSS VL: DLVMTQSPSTLSASVGDRVTITCQASQSINSWLAWYQQKPGKPPKLLIYKASTLASGVSSRFSGSGSGTEFTLTISSLQPDDVATYYCQHGYIRGDLDNVFGGGTKVEIKR | binds
anti-LILRB4 chimeric antibody B1A2 (antibody, human IgG1, V domains shown, also called Camelid-derived anti-LILRB4 VHH B1A2-Fc) VH: QVQLVESGGGLVQPGGSLRLSCAASGFTFSSYTMSWVRQAPGKGLEWISDINNDGGKTYYAFSVEGRFTISRDNAKNTLYLQMNSLKPEDTAVYYCVRDHQYTSRNGDRGQGTQVTVSS | binds
anti-LILRB4 chimeric antibody B1G5 (antibody, human IgG1, V domains shown, also called Camelid-derived anti-LILRB4 VHH B1G5-Fc) VH: EVQLVESGGGLVQAGGSLRLSCAASESIFSSNVMGWYRQSPGHQRELVAAVGINGLTKIGDSVKGRFTISRDNAKNTVYLQMNSLKVEDTAVYYCAAGAYVRFLQNSPDYWGQGTQVTVSS | binds
anti-LILRB4 chimeric antibody 2A3 (antibody, human IgG1, V domains shown, also called Camelid-derived anti-LILRB4 VHH 2A3-Fc) VH: EVQVVESGGGSVQTGGSLTLSCAASGRTFRSNGMGWFRQAPGKEREFVAAIRWSGRRTTYTDSVKGRFTISSDSAKNTVYLQMSSLKPEDTAVYYCAVDLLPPYGALDKYDYWGQGTQVTVSS | binds
